B1: NP_015628.1 (parent)
chain: EQRNSRWNTVLRAVKAKTHHLEP

Variants of: B1
Test: protein stability index of a GFP-peptide fusion (GPS, HEK-293T) (PSI 1-6); higher = more stable;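 note: lentivirally expressed fusion library, cells FACS-sorted into six equal-sized GFP/DsRed ratio bins, PSI computed from sequencing read fractions per bin weighted by bin number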
Conditions: c terminus: native
Kind request: treat 3 as inclusive, so protein stability index at 3 or higher is Condition met, anything lower is Condition not met.

For orientation, consider the following solved cases.
L11D	Condition met
P23Y	Condition met
A16R	Condition not met

Now for a further variant.
Exercise: For this variant, is measured protein stability index 3 or higher? E1P
Key: Condition not met

Cited source: the supplement of paper PMC10567573
